assay: Growth inhibition of human EKVX cells assessed as cell growth at 10 uM after 48 hrs by sulforhodamine B assay; type: functional; conditions: read-out: Activity
READOUT KIND: growth at 10 µM (%)
Kindly answer with a numeric value in %, unit omitted.

Req: So what's the measured growth at 10 µM for this one? COc1ccc(CCN2COc3c(C)c(C)c4c(c3C2)CC[C@@](C)(CC/C=C(\C)CC/C=C(\C)CCC=C(C)C)O4)cc1OC
Resp: 94.1

Req: So what's the measured growth at 10 µM for this one? CC(C)=CCC/C(C)=C/CC/C(C)=C/CC[C@]1(C)CCc2c3c(c(C)c(C)c2O1)OCN(CCCCCCCCCCCCO)C3
Resp: 105

Req: So what's the measured growth at 10 µM for this one? CC(C)=CCC/C(C)=C/CC/C(C)=C/CC[C@]1(C)CCc2c3c(cc(C)c2O1)OCN(CCc1ccc(O)cc1)C3
Resp: 90.7

Req: So what's the measured growth at 10 µM for this one? CC(C)=CCC/C(C)=C/CC/C(C)=C/CC[C@]1(C)CCc2c3c(c(C)c(C)c2O1)OCN(CCCCCCCCCCO)C3
Resp: 102

Req: So what's the measured growth at 10 µM for this one? COc1ccc(CCNCc2c(O)c(C)c(C)c3c2CC[C@@](C)(CC/C=C(\C)CC/C=C(\C)CCC=C(C)C)O3)cc1OC
Resp: 99.3

Req: So what's the measured growth at 10 µM for this one? CC(C)=CCC/C(C)=C/CC/C(C)=C/CC[C@]1(C)CCc2c3c(cc(C)c2O1)OCN(CCCCCO)C3
Resp: 90.5

Req: So what's the measured growth at 10 µM for this one? CC(C)=CCC/C(C)=C/CC/C(C)=C/CC[C@]1(C)CCc2c3c(cc(C)c2O1)OCN(CCCCO)C3
Resp: 85.4

Req: So what's the measured growth at 10 µM for this one? CC(C)=CCC/C(C)=C/CC/C(C)=C/CC[C@]1(C)CCc2c3c(cc(C)c2O1)OCN(CCCCCCCCCCO)C3
Resp: 87.1

----------
system: OVCAR-8; assay: Growth inhibition of human OVCAR8 cells after 48 hrs by sulforhodamine B assay; type: functional; conditions: OVCAR-8, 48 h
READOUT KIND: GI50 (µM)
Kindly answer with a numeric value in µM, unit omitted.

Req: So what's the measured GI50 for this one? CC(C)=CCC/C(C)=C/CC/C(C)=C/CC[C@]1(C)CCc2c3c(c(C)c(C)c2O1)OCN(CCCCCCO)C3
Resp: 3.06

Req: So what's the measured GI50 for this one? CC(C)=CCC/C(C)=C/CC/C(C)=C/CC[C@]1(C)CCc2c3c(cc(C)c2O1)OCN(C1CCN(Cc2ccccc2)CC1)C3
Resp: 1.4

Req: So what's the measured GI50 for this one? CC(C)=CCC/C(C)=C/CC/C(C)=C/CC[C@]1(C)CCc2c3c(cc(C)c2O1)OCN(CCCCCCO)C3
Resp: 4.45

Req: So what's the measured GI50 for this one? CC(C)=CCC/C(C)=C/CC/C(C)=C/CC[C@]1(C)CCc2c3c(cc(C)c2O1)OCN(CCCO)C3
Resp: 1.95

Req: So what's the measured GI50 for this one? CC(C)=CCC/C(C)=C/CC/C(C)=C/CC[C@]1(C)CCc2c3c(c(C)c(C)c2O1)OCN(CCCCCCCCO)C3
Resp: 2.67

Req: So what's the measured GI50 for this one? CC(C)=CCC/C(C)=C/CC/C(C)=C/CC[C@]1(C)CCc2c3c(cc(C)c2O1)OCN(CCCCCO)C3
Resp: 6.39

Req: So what's the measured GI50 for this one? COc1ccc(CCN2COc3cc(C)c4c(c3C2)CC[C@@](C)(CC/C=C(\C)CC/C=C(\C)CCC=C(C)C)O4)cc1OC
Resp: 2.2

Req: So what's the measured GI50 for this one? CC(C)=CCC/C(C)=C/CC/C(C)=C/CC[C@]1(C)CCc2c3c(cc(C)c2O1)OCN(CCCCCCCCO)C3
Resp: 4.46

Req: So what's the measured GI50 for this one? CC(C)=CCC/C(C)=C/CC/C(C)=C/CC[C@]1(C)CCc2c3c(cc(C)c2O1)OCN(CCc1ccc(O)cc1)C3
Resp: 5.84

Req: So what's the measured GI50 for this one? CC(C)=CCC/C(C)=C/CC/C(C)=C/CC[C@]1(C)CCc2c3c(c(C)c(C)c2O1)OCN(CCCCCO)C3
Resp: 6.39

----------
Kindly state growth at 10 µM for each of the entries shown.
experiment: Growth inhibition of human EKVX cells assessed as cell growth at 10 uM after 48 hrs by sulforhodamine B assay; format: functional; conditions: read-out: Activity
Kindly answer with a numeric value in %, unit omitted.

Req: So what's the measured growth at 10 µM for this one? CC(C)=CCC/C(C)=C/CC/C(C)=C/CC[C@]1(C)CCc2c(CNCCc3ccc(O)cc3)c(O)c(C)c(C)c2O1
Resp: 99.8

Req: So what's the measured growth at 10 µM for this one? CC(C)=CCC/C(C)=C/CC/C(C)=C/CC[C@]1(C)CCc2c3c(cc(C)c2O1)OCN(CCCCCCCCO)C3
Resp: -53.4

Req: So what's the measured growth at 10 µM for this one? CC(C)=CCC/C(C)=C/CC/C(C)=C/CC[C@]1(C)CCc2c3c(c(C)c(C)c2O1)OCN(CCc1ccc(O)cc1)C3
Resp: 93.9

Req: So what's the measured growth at 10 µM for this one? CC(C)=CCC/C(C)=C/CC/C(C)=C/CC[C@]1(C)CCc2c3c(cc(C)c2O1)OCN(CCCCCCCCCCCCO)C3
Resp: 77.6

Req: So what's the measured growth at 10 µM for this one? CC(C)=CCC/C(C)=C/CC/C(C)=C/CC[C@]1(C)CCc2c3c(c(C)c(C)c2O1)OCN(CCCCCO)C3
Resp: 90.6

Req: So what's the measured growth at 10 µM for this one? CC(C)=CCC/C(C)=C/CC/C(C)=C/CC[C@]1(C)CCc2c3c(cc(C)c2O1)OCN(CCCO)C3
Resp: 82.7

Req: So what's the measured growth at 10 µM for this one? CC(C)=CCC/C(C)=C/CC/C(C)=C/CC[C@]1(C)CCc2cc(O)c(C)c(C)c2O1
Resp: 110

Req: So what's the measured growth at 10 µM for this one? COc1ccc(CCN2COc3cc(C)c4c(c3C2)CC[C@@](C)(CC/C=C(\C)CC/C=C(\C)CCC=C(C)C)O4)cc1OC
Resp: 85.5

Req: So what's the measured growth at 10 µM for this one? CC(C)=CCC/C(C)=C/CC/C(C)=C/CC[C@]1(C)CCc2c3c(c(C)c(C)c2O1)OCN(CCCCO)C3
Resp: 108

Req: So what's the measured growth at 10 µM for this one? CC(C)=CCC/C(C)=C/CC/C(C)=C/CC[C@]1(C)CCc2c3c(cc(C)c2O1)OCN(C1CCN(Cc2ccccc2)CC1)C3
Resp: 78

----------
system: NCI-H522; test: Growth inhibition of human NCI-H522 cells assessed as cell growth at 10 uM after 48 hrs by sulforhodamine B assay; assay type: functional; conditions: NCI-H522, 48 h, read-out: Activity
READOUT KIND: growth at 10 µM (%)
Kindly answer with a numeric value in %, unit omitted.

Req: So what's the measured growth at 10 µM for this one? CC(C)=CCC/C(C)=C/CC/C(C)=C/CC[C@]1(C)CCc2c3c(cc(C)c2O1)OCN(CCCCCCCCCCO)C3
Resp: 86

Req: So what's the measured growth at 10 µM for this one? CC(C)=CCC/C(C)=C/CC/C(C)=C/CC[C@]1(C)CCc2c3c(cc(C)c2O1)OCN(CCCCCCO)C3
Resp: -0.37

Req: So what's the measured growth at 10 µM for this one? CC(C)=CCC/C(C)=C/CC/C(C)=C/CC[C@]1(C)CCc2c3c(cc(C)c2O1)OCN(CCc1ccc(O)cc1)C3
Resp: -50.5

Req: So what's the measured growth at 10 µM for this one? CC(C)=CCC/C(C)=C/CC/C(C)=C/CC[C@]1(C)CCc2c3c(cc(C)c2O1)OCN(CCCCO)C3
Resp: 48.5

Req: So what's the measured growth at 10 µM for this one? CC(C)=CCC/C(C)=C/CC/C(C)=C/CC[C@]1(C)CCc2c3c(cc(C)c2O1)OCN(C1CCN(Cc2ccccc2)CC1)C3
Resp: -24.9

Req: So what's the measured growth at 10 µM for this one? COc1ccc(CCN2COc3c(C)c(C)c4c(c3C2)CC[C@@](C)(CC/C=C(\C)CC/C=C(\C)CCC=C(C)C)O4)cc1OC
Resp: 98.6

Req: So what's the measured growth at 10 µM for this one? CC(C)=CCC/C(C)=C/CC/C(C)=C/CC[C@]1(C)CCc2c3c(cc(C)c2O1)OCN(CCCCCCCCCCCCO)C3
Resp: 36.7

Req: So what's the measured growth at 10 µM for this one? CC(C)=CCC/C(C)=C/CC/C(C)=C/CC[C@]1(C)CCc2c3c(c(C)c(C)c2O1)OCN(CCCCCCCCO)C3
Resp: 30.9

Req: So what's the measured growth at 10 µM for this one? CC(C)=CCC/C(C)=C/CC/C(C)=C/CC[C@]1(C)CCc2c3c(cc(C)c2O1)OCN(CCCCCO)C3
Resp: 4.69

Req: So what's the measured growth at 10 µM for this one? CC(C)=CCC/C(C)=C/CC/C(C)=C/CC[C@]1(C)CCc2c3c(cc(C)c2O1)OCN(CCCO)C3
Resp: -72.9

Req: So what's the measured growth at 10 µM for this one? CC(C)=CCC/C(C)=C/CC/C(C)=C/CC[C@]1(C)CCc2c3c(c(C)c(C)c2O1)OCN(CCCCO)C3
Resp: 86.7

Req: So what's the measured growth at 10 µM for this one? COc1ccc(CCN2COc3cc(C)c4c(c3C2)CC[C@@](C)(CC/C=C(\C)CC/C=C(\C)CCC=C(C)C)O4)cc1OC
Resp: -45.8

Req: So what's the measured growth at 10 µM for this one? CC(C)=CCC/C(C)=C/CC/C(C)=C/CC[C@]1(C)CCc2c(CNCCc3ccc(O)cc3)c(O)c(C)c(C)c2O1
Resp: 105

Req: So what's the measured growth at 10 µM for this one? CC(C)=CCC/C(C)=C/CC/C(C)=C/CC[C@]1(C)CCc2c3c(c(C)c(C)c2O1)OCN(CCCCCCO)C3
Resp: 68.3

Req: So what's the measured growth at 10 µM for this one? COc1ccc(CCNCc2c(O)c(C)c(C)c3c2CC[C@@](C)(CC/C=C(\C)CC/C=C(\C)CCC=C(C)C)O3)cc1OC
Resp: 96.2

Req: So what's the measured growth at 10 µM for this one? CC(C)=CCC/C(C)=C/CC/C(C)=C/CC[C@]1(C)CCc2c3c(c(C)c(C)c2O1)OCN(CCCCCCCCCCCCO)C3
Resp: 69.5
